The values you see were collected from ChEMBL document CHEMBL4402517.

What selectivity ratio was measured for each of the following?
EXPERIMENT: Selectivity index, ratio of IC50 for African green monkey Vero cells to IC50 for Trypanosoma cruzi IRHOD/CO/2008/SN3;DTU 1
Format: toxicity
TEST_SETTINGS: read-out: Selectivity Index
Form rule: numeric answer, no unit written next to it.

If you can, please state the reported selectivity ratio value of `O=C(CCN1CCN(c2ccc(C(F)(F)F)cc2)CC1)c1ccc(O)cc1` .
8.5

And what about the molecule `COc1ccc(C(=O)CCNc2ccc(F)cc2)cc1` ?
5.2

What do you have for `COc1ccc(C(=O)CCNc2ccc(C(F)(F)F)cc2)cc1` ?
0.4

// query: `COc1ccc(C(=O)CCNCCc2ccc(F)cc2)cc1`
3.9

Please give the result for `O=C(CCN1CCN(c2ccc(F)cc2)CC1)c1ccc(O)cc1` too.
5

Then this molecule: `COc1ccc(C(=O)CCNCCc2ccc(Cl)cc2)cc1`
3.7

How about `COc1ccc(C(=O)CCNc2ccc(Cl)cc2)cc1` ?
3.8

Same again, this time with `COc1ccc(C(=O)CCNCCc2ccc(C(F)(F)F)cc2)cc1`
6.9

Likewise for `O=C(CCN1CCN(c2ccc(Cl)cc2)CC1)c1ccc(O)cc1` ?
8.6

Also `O=C(CCN1CCN(c2ccc([N+](=O)[O-])cc2)CC1)c1ccc(O)cc1` ?
2.7
